# TEST TARGET: COX-1 (Ovis aries, UniProt P05979)
# Sequence (P05979 25-600): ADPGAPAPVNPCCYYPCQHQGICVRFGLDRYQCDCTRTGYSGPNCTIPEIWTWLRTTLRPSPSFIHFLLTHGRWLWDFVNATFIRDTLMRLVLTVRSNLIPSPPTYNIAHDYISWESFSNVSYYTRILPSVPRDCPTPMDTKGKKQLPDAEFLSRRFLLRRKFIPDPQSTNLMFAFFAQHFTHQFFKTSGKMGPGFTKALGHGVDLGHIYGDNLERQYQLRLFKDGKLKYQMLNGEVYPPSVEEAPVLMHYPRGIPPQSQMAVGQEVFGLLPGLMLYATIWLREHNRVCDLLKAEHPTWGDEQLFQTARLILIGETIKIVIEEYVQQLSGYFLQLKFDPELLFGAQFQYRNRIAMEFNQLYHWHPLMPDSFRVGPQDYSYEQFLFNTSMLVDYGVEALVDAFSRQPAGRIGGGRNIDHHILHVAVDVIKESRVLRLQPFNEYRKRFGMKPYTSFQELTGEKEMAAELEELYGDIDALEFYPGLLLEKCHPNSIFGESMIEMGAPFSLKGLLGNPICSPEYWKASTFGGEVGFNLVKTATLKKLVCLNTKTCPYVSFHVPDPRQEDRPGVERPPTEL
MEASUREMENT NAME: pIC50
// pIC50 here means minus log10 of the molar concentration (mol/L)

Q: Look up pIC50 for this compound: `C[C@@H]1O[C@@H](Oc2c(-c3ccc(O)c(O)c3)oc3cc(O)cc(O)c3c2=O)[C@H](O[C@@H]2OC[C@H](O)[C@H](O)[C@H]2O)[C@H](O)[C@H]1O`
A: 4.42

Ref: paper PMC4279175
